Taken from ChEMBL document CHEMBL1201862.

System: HCC 2998
Test: NCI tumour cell line growth inhibition, 48 h
Activity calls are given as the source filed them. No stated cut-off is given here; in the data, active = GI50 up to about 1.1 µM and inactive = higher.
Your response should consist of one outcome taken from active, inactive

Example results:
COc1cccc2c1C(=N)c1c(O)c3c(c(O)c1C2=O)C[C@@](O)(C(C)=O)C[C@@H]3OC1CC(N)C(O)C(C)O1 (some centres not stated)    active
CCc1cccc(C(C)C)c1NC(=O)C(=O)C(Cc1nc2ccccc2nc1O)C(=O)OC (configuration not stated)    inactive
COc1ccc(/C=C/C(=O)/C=C/c2ccc(OC)cc2)cc1    active
CCOC(=O)C(CC/C=C\c1ccccc1)N1CCC[C@H]1C(=O)OC (some centres not stated)    inactive
NC(CSCc1ccccc1)C(=O)O (configuration not stated)    inactive
CC(C)c1ccccc1SC1CC(=O)CC(Sc2ccccc2C(C)C)C12O[C@H](c1ccccc1)[C@@H](c1ccccc1)O2 (some centres not stated)    inactive

For "O=C(O)c1cc(=O)c2[nH]c3ccccc3c2s1" , what call appears in the results of this test?
inactive
